test: Chromogenic reaction of degrading herbicides in bacteria: 2,4-D
Type: cell-based, Escherichia coli
test.settings: recombinant E. coli expressing the gene, 2,4-D added to the medium; red = phenols
measured.property: Chromogenic reaction of degrading herbicides in bacteria: 2,4-D

[
  {
    "molecule": "QYD58: AAD-like enzyme, SEQ ID NO. 115 (protein, Synthetic polypeptide, QYD58, D58) MARTFDIEPLAGTTFGAVVRGMKVAILDDAGWRDLYAAWLKYALLVFPGQHLKRDEQIAFAKRFGALEFEMAALSNVKSDGTLRQEKDNDDMMKILKGNMGWHADSTYMPVQAKGAVFSAEIVPGAGGQTGFADMRAAYDALDAGRKAKVERLAAHHSLHYSQSKLGHQTKKQDGEYSGYGLHDGPVPLRPLVKTHPETGRKSLLIGRHAHNIPGMDKAESERLLQELVDFACQPPRVYHHDWTAGDAVVWDNRCLLHQATPWDMTQPRVMWHSRIAGDPRSEAALGVTAVSAAASG",
    "reported.result": "Yes"
  }
]
